SYSTEM NAME: affinity purified β2GPI-dependent antiphospholipid antibody
ASSAY INFO: Competitive inhibition ELISA: recombinant β2GPI proteins compete for antibody binding to coated full length recombinant β2GPI
Set-up: species or system human
REPORTED CONDITIONS: Ab 7008; read-out: 50% (concentration to give 50% inhibition)
IC50 values, listed per item

# MOLECULE, MEASURED ATTRIBUTE, VAL
measured = [
    ("recombinant β2GPI domain 5 with GlyHis6 (----5) (protein) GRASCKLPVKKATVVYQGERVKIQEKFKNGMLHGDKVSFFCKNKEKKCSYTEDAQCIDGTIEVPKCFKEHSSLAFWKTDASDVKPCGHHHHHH", "IC50", "> 47 µM"),
    ("1----: recombinant β2GPI protein with domain 1 only (SEQ ID NO:4 region), His6 tail (protein) GRTCPKPDDLPFSTVVPLKTFYEPGEEITYSCKPGYVSRGGMRKFICPLTGLWPINTLKCTPRVGHHHHHH", "IC50", "> 10 µM"),
    ("123--: recombinant β2GPI deletion mutant with domains 1, 2, 3 (protein) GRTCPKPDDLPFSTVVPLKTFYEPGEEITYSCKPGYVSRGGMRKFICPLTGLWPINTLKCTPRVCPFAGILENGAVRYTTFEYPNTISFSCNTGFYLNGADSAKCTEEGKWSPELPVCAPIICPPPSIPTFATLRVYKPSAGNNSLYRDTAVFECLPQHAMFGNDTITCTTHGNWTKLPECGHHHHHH", "IC50", "0.4 µM"),
    ("-2345: recombinant β2GPI deletion mutant with domains 2-5 (protein) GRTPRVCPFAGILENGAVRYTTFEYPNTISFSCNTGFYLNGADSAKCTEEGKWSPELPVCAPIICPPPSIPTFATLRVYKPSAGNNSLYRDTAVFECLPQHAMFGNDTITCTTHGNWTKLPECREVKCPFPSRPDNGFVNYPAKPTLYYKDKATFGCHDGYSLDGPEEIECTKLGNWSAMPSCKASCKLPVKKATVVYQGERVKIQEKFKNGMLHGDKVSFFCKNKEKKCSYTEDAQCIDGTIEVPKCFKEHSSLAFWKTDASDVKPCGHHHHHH", "IC50", "> 57 µM"),
    ("1234-: recombinant β2GPI deletion mutant with domains 1, 2, 3, 4 (protein) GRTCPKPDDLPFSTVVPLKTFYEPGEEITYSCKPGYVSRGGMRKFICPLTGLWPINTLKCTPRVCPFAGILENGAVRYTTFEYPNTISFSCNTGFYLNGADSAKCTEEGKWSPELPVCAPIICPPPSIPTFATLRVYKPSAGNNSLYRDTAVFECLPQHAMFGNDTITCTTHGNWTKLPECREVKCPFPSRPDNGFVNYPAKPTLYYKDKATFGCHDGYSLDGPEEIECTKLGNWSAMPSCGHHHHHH", "IC50", "> 8 µM"),
]

// lookup IC50 for ---45: recombinant β2GPI deletion mutant with domains 4, 5 (protein) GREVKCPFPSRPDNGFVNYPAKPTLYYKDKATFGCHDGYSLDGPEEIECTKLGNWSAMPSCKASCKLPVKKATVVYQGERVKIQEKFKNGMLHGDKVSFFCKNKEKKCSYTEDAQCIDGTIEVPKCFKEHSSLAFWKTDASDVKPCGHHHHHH
> 40 µM

Try this molecule next: 12---: recombinant β2GPI deletion mutant with domains 1 and 2 (protein) GRTCPKPDDLPFSTVVPLKTFYEPGEEITYSCKPGYVSRGGMRKFICPLTGLWPINTLKCTPRVCPFAGILENGAVRYTTFEYPNTISFSCNTGFYLNGADSAKCTEEGKWSPELPVCAPIIGHHHHHH
> 10 µM
